- System: HCT-116 colon
- testDetails: NCI-60 one-dose screen, 48 h (100 = growth as untreated, 0 = no growth, -100 = all killed)
- testSettings: 10 µM unless noted
The panel holds about 83,000 compounds, 20% with a hit somewhere; the sample as a whole holds those more often.
endpoint: growth (%)
Answer format: numeric, % implied, no suffix.

COc1cc(NC2CCC(=O)N2c2ccc(Cl)cc2Cl)cc(OC)c1OC (stereo not given)    97.1
Cc1cc(Nc2nc(N[C@@H](C)c3ncc(F)cn3)ncc2Cl)n[nH]1    62.4
COC(=O)N[C@@H](C)CNc1nccc(-c2cn(C(C)C)nc2-c2cc(Cl)cc(NS(C)(=O)=O)c2F)n1    19.5

## Task Query growth on HCT-116 colon for COc1ccc(OC)c(NC2=C(SCCc3ccccc3)C(=O)c3ccccc3C2=O)c1
## Result 72.3

## Task Entry COC(=O)CC[C@@H](C)[C@H]1CC[C@H]2C3CC[C@@H]4C[C@@H]5CC[C@]4(C)[C@@]3(O5)[C@H](Br)[C@@H](Br)[C@]12C (stereo not given in full) , system HCT-116 colon: what growth was measured?
## Result 74.2

## Task Notebook: pull reported growth for HCT-116 colon, entry C=CC(=O)Nc1cc2c(Nc3ccc(F)c(Cl)c3)ncnc2cc1OCCCN1CCOCC1
## Result -70.8

## Task Query for HCT-116 colon: what growth does the record show for Cc1ccc(Nc2nccc(N(C)c3ccc4c(C)n(C)nc4c3)n2)cc1S(N)(=O)=O ?
## Result 3.7

## Task For HCT-116 colon, provide growth of C=C1CC[C@@H]2[C@](C)(COC(C)=O)[C@H](OC(C)=O)CC[C@@]2(C)[C@@H]1C/C=C1/C(=O)OC[C@H]1OC(C)=O please.
## Result -37.3

## Task Give HCT-116 colon growth for O=C1C=CC2(NN=C(c3ccccc3)N2c2ccc(Cl)cc2)c2cccc(O)c21 (stereo not given)
## Result 26.1

## Task Form entry - test system: HCT-116 colon; read-out: growth; compound: Cc1nc(N)sc1-c1ccnc(Nc2ccc(N3CCOCC3)cc2)n1
## Result 26.2

## Task Kindly state the measured growth obtained for O=CC(OC(=O)c1ccccc1)C(OC(=O)c1ccccc1)C(COC(c1ccccc1)(c1ccccc1)c1ccccc1)OC(=O)c1ccccc1 (stereo not given) with HCT-116 colon.
## Result 7.51

## Task What measured growth is associated with CC(=Nc1ccccc1)C1=C(O)C(Cc2ccc(O)cc2)NC1=O (stereo not given) on HCT-116 colon?
## Result 3.3

## Task Please tell me: growth of c1ccc2c(c1)CCN(NCCN1CCCC1)C2 , system HCT-116 colon?
## Result 85.6

## Task Provide the documented growth with HCT-116 colon as the system for C=CCCCOC1[C@H](OCc2ccccc2)C(OCc2ccccc2)C(OC)O[C@@H]1CNC(=O)c1cccc(I)c1 (stereo not given in full)
## Result 19.8

## Task Query for HCT-116 colon: what growth does the record show for COc1ccc(C2CC(=O)c3c(O)c(OC)c(OC)c(OC)c3O2)c(O)c1 (stereo not given) ?
## Result 10.2

## Task Form entry - test system: HCT-116 colon; read-out: growth; compound: CCc1cc2c(c3ccc(C(=O)CBr)cc13)CCCC2
## Result 102

## Task What measured growth is associated with O=c1[nH]c(N2CCOCC2)nc2scc(-c3ccccc3)c12 on HCT-116 colon?
## Result 98.3

---

Measured growth, listed per entry for reference.
- System: PC-3 prostate
- testDetails: NCI-60 one-dose screen, 48 h (100 = growth as untreated, 0 = no growth, -100 = all killed)
- testSettings: 10 µM unless noted
The panel holds about 83,000 compounds, 20% with a hit somewhere; the sample as a whole holds those more often.
Quick reminder: number only, in %, skip the unit.

Example compounds with recorded growth:
CN[C@@H]1C[C@H]2O[C@@](C)([C@@H]1OC)n1c3ccccc3c3c4c(c5c6ccccc6n2c5c31)C(=O)N[C@H]4O    4.43
COc1cc(Nc2ncc(F)c(Nc3ccc4c(n3)NC(=O)C(C)(C)O4)n2)cc(OC)c1OC    51.9
CC[C@H](Nc1ncnc2nc[nH]c12)c1nc2cccc(F)c2c(=O)n1-c1ccccc1    50.9
Cc1ccccc1Nc1nc2nonc2nc1Nc1cccc(C)c1C    42.2

## Task Would you mind telling me what growth value was observed for O=C(Cn1ccc2ccccc21)Nc1ccc(-c2nc3ccccc3s2)cc1 ?
## Result 98

---

- Tested on: SF-295 CNS
- testDetails: NCI-60 one-dose screen, 48 h (100 = growth as untreated, 0 = no growth, -100 = all killed)
- testSettings: 10 µM unless noted
About 83,000 compounds went through this panel and 20% of them were active in at least one assay; those are over-represented in the sample as a whole.
endpoint: growth (%)
Only the number, expressed in %, is required.

Some entries whose results are on file:
CC[n+]1c(/C=C/C=C2\N(C)c3ccccc3C2(C)C)sc2ccccc21    -6.72
Cc1ccc(NC(=O)Nc2ccc(Nc3ncnc4sc5c(c34)CCOC5)cc2)cc1Cl    96
CNC(=O)c1nn(C)c2c1C(C)(C)Cc1cnc(Nc3ccc(N4CCN(C)CC4)cc3)nc1-2    15.3
O=C(Cc1ccc(/C=C/C(=O)c2ncc[nH]2)cc1)Nc1ccc(S(F)(F)(F)(F)F)cc1    80.8

## Task Could you share which growth value was measured for CN1CCN(CCCOc2cccc3nc(Nc4ccc(Cl)c(C(F)(F)F)c4)ccc23)CC1 ?
## Result -11

---

- Test system: NCI/ADR-RES ovarian
- testDetails: NCI-60 one-dose screen, 48 h (100 = growth as untreated, 0 = no growth, -100 = all killed)
- testSettings: 10 µM unless noted
The panel holds about 83,000 compounds, 20% with a hit somewhere; the sample as a whole holds those more often.
endpoint: growth (%)
Return type: number; implicit unit %.

Previously resolved entries follow.
CNC(=O)c1c(C)oc2cc(Oc3ncnc4cc(OC)c(OC)cc34)ccc12    95.1
CC(N)C(Cc1ccc(Cl)cc1)c1ccc(Cl)cc1 (stereo not given)    87.5
CC/C=C\C[C@H]1C/C=C2/C(=O)C=C[C@@H]2C/C=C\CCCC(=O)O1    -1.72

## Task Field request: growth | item: O=C(CNc1nc2ccccc2s1)Nc1ccc(-c2nc3ccccc3s2)cc1
## Result 102

## Task Tell me the measured growth of C=CC(=O)N1CCC[C@@H](n2nc(-c3ccc(Oc4ccccc4)cc3)c3c(N)ncnc32)C1 , please.
## Result 46.4

## Task Quick one: growth of CCN(CC)C(=O)C[N+](C)(C)CCOC(c1ccccc1)c1ccccc1 ?
## Result 99.1

## Task Entry COc1ccc(C2OC(c3cc(-c4cc5ccccc5o4)nn3-c3ccccc3)=NN2C(C)=O)cc1 (stereo not given) has what growth?
## Result 92.2

## Task I have this molecule here, COc1cc2ncnc3c2cc1OCCCCCN(C)Cc1ccc(Br)cc1N3 , and I need its recorded growth.
## Result 46.7

## Task Request the reported growth associated with c1cn2cc(-c3ccc4cn[nH]c4c3)nc(Nc3ccc(N4CCOCC4)cc3)c2n1
## Result 39.2

---

- System: LOX IMVI melanoma
- testDetails: NCI-60 one-dose screen, 48 h (100 = growth as untreated, 0 = no growth, -100 = all killed)
- testSettings: 10 µM unless noted
About 83,000 compounds went through this panel and 20% of them were active in at least one assay; those are over-represented in the sample as a whole. Active and inactive are the calls of the source. The calls were made as follows: active = growth percent below 10; inactive = the rest.
endpoint: growth

Example results:
CC(C)n1c(NCCc2ccc(O)c(O)c2)nc2c1c(=O)n(C)c(=O)n2C    95.2% (inactive)
C[C@@H](Nc1cc(F)cc(F)c1)c1cc(C(=O)N(C)C)cc2c(=O)cc(N3CCOCC3)oc12    48.2% (inactive)
NC(=O)N1N=C(c2ccc(Cl)cc2)CC1c1cn(-c2ccccc2)nc1-c1ccc(Cl)cc1 (stereo not given)    55.9% (inactive)

## Task Please give the measured growth for this compound: COc1ccc(-c2cc3c(oc2=O)-c2ccccc2OC3OC(C)=O)cc1 (stereo not given)
## Result 98.2% (inactive)

## Task Please give the measured growth for this compound: COc1cc(-c2cc(-c3ccc(Nc4ccnc5cc(Cl)ccc45)cc3)nc(N3CCOCC3)n2)cc(OC)c1OC
## Result 4.79% (active)

---

- System: SK-MEL-5 melanoma
- testDetails: NCI-60 one-dose screen, 48 h
- testSettings: 10 µM unless noted
This is part of a sample that, as a whole, favours compounds with a hit. Of some 83,000 tested, about 20% had one in any assay. Calls of active or inactive are those of the source. How the source made its calls: active means growth percent below 10; inactive means the rest.
The reply should be one of these categories: active, inactive

COc1cc(Nc2ncc(F)c(Nc3ccc4c(n3)N(COP(=O)(O)O)C(=O)C(C)(C)O4)n2)cc(OC)c1OC    inactive
O=C1CSC(c2c(F)cccc2Cl)N1NC(=O)C(O)(c1ccccc1)c1ccccc1 (stereo not drawn)    inactive
Cc1cc(Nc2cc(N3CCN(C)CC3)nc(/C=C/c3ccccc3)n2)n[nH]1    active
COC(=O)CCCNc1c(-c2c(O)c(O)cc3c(O)c(-c4c(C)cc5c(-c6nc7ccccn7c6NCCCC(=O)OC)c(O)c(O)cc5c4O)c(C)cc23)nc2ccccn12    inactive
COc1ccc(F)c(F)c1C(=O)c1cnc(NC2CCN(S(C)(=O)=O)CC2)nc1N    active

## Task How was O=C(NO)c1ccc(Cn2c(=O)n(CCc3ccccc3)c(=O)c3ccccc32)cc1 classified in this test?
## Result inactive

## Task Look up the recorded call for N#CC(C#N)=NO in this test.
## Result inactive

## Task Name the outcome recorded for C[C@@H](Oc1cc(-n2cnc3ccc(CN4CCN(C)CC4)cc32)sc1C(N)=O)c1ccccc1C(F)(F)F in the assay.
## Result active

All figures here come from PubChem BioAssay (NCI).
